- assay target: rat CB2 receptors (Rattus norvegicus, UniProt Q9QZN9)
- Construct: expressed in transfected cells; host or cells: HEK293
- Sequence (Q9QZN9 1-360): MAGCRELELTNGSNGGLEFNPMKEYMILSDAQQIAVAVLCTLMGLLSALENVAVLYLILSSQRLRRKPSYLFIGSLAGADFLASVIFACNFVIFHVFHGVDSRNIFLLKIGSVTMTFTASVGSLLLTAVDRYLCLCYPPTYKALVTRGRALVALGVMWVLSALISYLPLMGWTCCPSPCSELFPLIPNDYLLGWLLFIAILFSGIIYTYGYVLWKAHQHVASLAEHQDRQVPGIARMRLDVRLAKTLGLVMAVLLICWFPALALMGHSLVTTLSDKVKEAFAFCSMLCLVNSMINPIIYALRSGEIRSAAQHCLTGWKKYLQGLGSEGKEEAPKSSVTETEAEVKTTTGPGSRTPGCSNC
- experimental details: rat CB2 radioligand binding assay ([3H]CP-55,940 competition)
assay metric: pKi
Numbers only, as −log10 of the molar value.

The cases that follow already have their pKi on record.
chem smiles	pKi
CCCCn1nc(C(C)(C)C)s/c1=N\C(=O)c1cc(C(F)(F)F)ccc1OC1CN(C(C)(C)C)C1	7.54
CN1CC[C@H](Oc2ccc(C(F)(F)F)cc2C(=O)/N=c2\cc(C(C)(C)C)n(C)n2CC2CCC2)C1	6.38
Cn1c(C(C)(C)C)c/c(=N\C(=O)c2cc(C(F)(F)F)ccc2OC2CN(C(C)(C)C)C2)n1CC1CC1	6.34

Next compound, please.
Ask: Find the measured pKi of `Cn1c(C(C)(C)C)c/c(=N\C(=O)c2cc(C(F)(F)F)ccc2OCCNC(C)(C)C)n1CC1CC1` with rat CB2 receptors (Rattus norvegicus, UniProt Q9QZN9) as test system.
Reply: 7.35

###

// human CB2 receptors (Homo sapiens, UniProt P34972) Ki records
Numbers only, in nM.

Check out these entries, answers already filled in.
chem smiles	assay target	result value
Cn1c(C(C)(C)C)c/c(=N\C(=O)c2cc(C(F)(F)F)ccc2OCCNC(C)(C)C)n1CC1CCC1	human CB2 receptors (Homo sapiens, UniProt P34972)	199
Cn1c(C(C)(C)C)c/c(=N\C(=O)c2cc(C(F)(F)F)ccc2OCCNC(C)(C)C)n1CC1CC1	human CB2 receptors (Homo sapiens, UniProt P34972)	123

# context switch: different compound, same Ki
Ask: Please list Ki recorded for the compound `CCCCn1nc(C(C)(C)C)s/c1=N\C(=O)c1cc(C(F)(F)F)ccc1OC1CN(C(C)(C)C)C1`
Reply: 46.4

###

- assay target: rat CB2 receptors (Rattus norvegicus, UniProt Q9QZN9)
- Construct: expressed in transfected cells; host or cells: HEK293
- experimental details: rat CB2 radioligand binding assay ([3H]CP-55,940 competition)
- details: HEK293 membranes expressing rat CB2, 0.5 nM [3H]CP-55,940; read-out: rat CB2 binding (Ki)
assay metric: pKi
One number for each entry, as −log10 of the molar value.

Ask: Give the reported value of pKi for this record: CCCCn1/c(=N/C(=O)c2cc(C(F)(F)F)ccc2OCCNC(C)(C)C)cc(C(C)(C)C)n1C [Example 4]
Reply: 6.98
